Below, each entry is listed with its recorded growth.
Tested on: HL-60(TB) leukemia
Assay: NCI-60 one-dose screen, 48 h (100 = growth as untreated, 0 = no growth, -100 = all killed)
Conditions: 10 µM unless noted
About 83,000 compounds went through this panel and 20% of them were active in at least one assay; those are over-represented in the sample as a whole.
reported_metric: growth (%)

INSERT INTO results (compound, target_or_test_system, reported_metric, value_observed) VALUES
  ('CCCCNCCC(O)c1cc2ccc(C(F)(F)F)cc2c2cc(C(F)(F)F)ccc12 (stereo not given)', 'HL-60(TB) leukemia', 'growth', -62.1),
  ('Clc1ccc(-c2ccc(CNCC3CCNCC3)o2)c(-c2ccccc2)c1', 'HL-60(TB) leukemia', 'growth', -62.3),
  ('CCCCCCCC(=O)SCC/C=C/[C@@H]1CC(=O)NCc2cccc(n2)C2=N[C@@](C)(CS2)C(=O)N[C@@H](C(C)C)C(=O)O1', 'HL-60(TB) leukemia', 'growth', 19.9),
  ('Brc1c2c(c(Br)c3ccccc13)CCCC2', 'HL-60(TB) leukemia', 'growth', 91.4),
  ('COc1ccc(S(=O)(=O)Nc2cc(/C=C\c3cc(OC)c(OC)c(OC)c3)cc(OC)c2OC)cc1', 'HL-60(TB) leukemia', 'growth', -42.1);

----------
Tested on: HL-60(TB) leukemia
Assay: NCI-60 one-dose screen, 48 h
Settings: 10 µM unless noted
About 83,000 compounds went through this panel and 20% of them were active in at least one assay; those are over-represented in the sample as a whole. Active and inactive are the calls of the source. Rule for the calls: active = growth percent below 10; inactive = the rest.
Outcome codes: t for active, f for inactive

INSERT INTO assay_data (compound, group_label) VALUES
  ('CC1(C)CC2(C)CC(=O)C1C(C(=O)O)C2C(=O)O (stereo not given)', 'f'),
  ('Clc1ccc(Nc2nnc(COc3ccccc3)c3ccccc23)cc1', 't'),
  ('Fc1ccc(N/N=C/c2ccc(-n3cccn3)cc2)cc1', 'f'),
  ('O=S(=O)(Nc1ccccc1)c1ccc(C2CC3(Cl)C(Cl)=C(Cl)C2(Cl)C3(Cl)Cl)cc1 (stereo not given)', 'f'),
  ('O=C(NC(Cc1cn(Cc2ccccc2)cn1)C(=O)O)OCC1c2ccccc2-c2ccccc21 (stereo not given)', 'f'),
  ('CCC(CC)COC(=O)c1ccc(O)c(O)c1', 't'),
  ('Cn1ccnc1C(=O)C(=O)Nc1ccc(CC(=O)Nc2ccccc2)cc1', 'f'),
  ('CC1=C(C(=O)OCC2CCN(C(=O)OC(C)(C)C)CC2)[C@@H](c2cccc(C#N)c2)C2=C(CC(C)(C)CC2=O)N1', 'f'),
  ('O=C(O)C1C(c2ccccc2)c2ccccc2C(O)C1CO (stereo not given)', 'f'),
  ('COC(=O)c1nc(-c2ccc(C)cc2)oc1S(=O)(=O)c1cccc(OC)c1', 'f');

----------
Tested on: HL-60(TB) leukemia
Assay: NCI-60 one-dose screen, 48 h
Details: 10 µM unless noted
Experimental: Growth inhibition of the HL-60(TB) human tumor cell line is measured as a screen for anti-cancer activity. Cells are grown in 96 well plates and exposed to the test compound for 48 hours. Compounds are tested at a single concentration, which is 10^-5 M for most compounds. The reported endpoint is percent growth (GI% or GIPRCNT), where numbers from 0 - 100% represent growth inhibition, and numbers from -100% - 0 represent cell death. For example, a value of 40 represents 60% growth inhibition. […]
Compounds without any hit were thinned out: in the full panel of roughly 83,000, 20% have a hit. Calls of active or inactive are those of the source. How the source made its calls: active means growth percent below 10; inactive means the rest.
Outcome codes: 1 for active, 0 for inactive

INSERT INTO assay_data (molecule_smiles, group_label) VALUES
  ('O=c1[nH]ncc(Br)c1Br', 0),
  ('CCOC(=O)c1c(/C=C/C(=O)O)nc2ccccc2c1/C=C/c1ccccc1', 1),
  ('Cc1nn(-c2nc3ccccc3s2)c(C)c1Oc1ccccc1O', 0),
  ('O=C(CSc1nc2sc3c(c2c(=O)n1Cc1ccccc1)CCCC3)N1CCN(c2ccccc2)CC1', 0),
  ('Cn1c2ccccc2c2nn(C(=O)c3ccccc3)c(=O)nc21', 0),
  ('CN(CCn1sc(=O)n(Cc2ccccc2)c1=O)Cc1ccc2c(Cl)cc(Cl)c(O)c2n1', 0);
